test system: P388 mouse leukemia cells; settings: 92 h
Where a SMILES comes first, the peptide text is derived from it. [ ]: non-standard residue; d: D form. The star is where a group is joined. NHCH2CH2OH = OCCN*; For = O=C*
Quick list: cell viability/% per entry.
The response must be a number in % with no trailing unit.

{"MOLECULE": "CC(C)C[C@@H](NC(=O)[C@H](Cc1c[nH]c2ccccc12)NC(=O)[C@H](NC(=O)[C@H](Cc1c[nH]c2ccccc12)NC(=O)[C@@H](CC(C)C)NC(=O)[C@H](Cc1c[nH]c2ccccc12)NC(=O)[C@H](NC(=O)[C@@H](NC(=O)[C@H](NC(=O)[C@H](C)NC(=O)[C@H](NC(=O)[C@H](C)NC(=O)CNC(=O)[C@@H](NC=O)C(C)C)[C@H](C)O)C(C)C)C(C)C)C(C)C)C(C)C)C(=O)N[C@@H](Cc1c[nH]c2ccccc12)C(=O)NCCO [compound 11199] (For-VGA[dT]A[dV]V[dV]W[dL]W[dV]W[dL]W-NHCH2CH2OH)", "cell viability/%, %": 65.2}
{"MOLECULE": "CC(C)C[C@@H](NC(=O)[C@H](C)NC(=O)CNC(=O)[C@@H](NC=O)C(C)C)C(=O)N[C@@H](C)C(=O)N[C@H](CC(C)C)C(=O)N[C@H](C(=O)N[C@H](CC(C)C)C(=O)N[C@@H](Cc1c[nH]c2ccccc12)C(=O)N[C@@H](C(=O)N[C@@H](Cc1c[nH]c2ccccc12)C(=O)N[C@@H](C(=O)N[C@@H](Cc1c[nH]c2ccccc12)C(=O)N[C@@H](C(=O)N[C@@H](Cc1c[nH]c2ccccc12)C(=O)NCCO)C(C)C)[C@H](C)O)C(C)C)C(C)C [compound 8722] (For-VGA[dL]A[dL]V[dL]W[dV]W[dT]W[dV]W-NHCH2CH2OH)", "cell viability/%, %": 70.8}
{"MOLECULE": "CC(C)C[C@@H](NC(=O)[C@H](C)NC(=O)CNC(=O)[C@@H](NC=O)C(C)C)C(=O)N[C@@H](C)C(=O)N[C@H](CC(C)C)C(=O)N[C@H](C(=O)N[C@@H](C(=O)N[C@@H](Cc1c[nH]c2ccccc12)C(=O)N[C@@H](C(=O)N[C@@H](Cc1c[nH]c2ccccc12)C(=O)N[C@@H](C(=O)N[C@@H](Cc1c[nH]c2ccccc12)C(=O)N[C@H](CC(C)C)C(=O)N[C@@H](Cc1c[nH]c2ccccc12)C(=O)NCCO)C(C)C)C(C)C)[C@H](C)O)C(C)C [compound 7548] (For-VGA[dL]A[dL]V[dT]W[dV]W[dV]W[dL]W-NHCH2CH2OH)", "cell viability/%, %": 100.0}

// next entry
Q: Param item = CNC(=O)C[C@@H](NC(=O)[C@@H](NC(=O)[C@H](NC(=O)[C@H](C)NC(=O)[C@H](NC(=O)[C@H](C)NC(=O)CNC(=O)[C@@H](NC=O)C(C)C)C(C)C)C(C)C)C(C)C)C(=O)N[C@@H](Cc1c[nH]c2ccccc12)C(=O)N[C@H](CC(C)C)C(=O)N[C@@H](Cc1c[nH]c2ccccc12)C(=O)N[C@H](CC(C)C)C(=O)N[C@@H](Cc1c[nH]c2ccccc12)C(=O)N[C@@H](C(=O)N[C@@H](Cc1c[nH]c2ccccc12)C(=O)NCCO)C(C)C [compound 6899] (For-VGA[dV]A[dV]V[dD](NHMe)W[dL]W[dL]W[dV]W-NHCH2CH2OH) ; retrieve measured cell viability/%.
Ans: 100.0
